Tested on: Plasmodium berghei
Experiment: Screen against P. berghei liver stage (PbLuc), transformed with Luciferase, at 10uM
Assay type: functional, HepG2
Details: tested at 10 uM
The campaign covered roughly 69,000 compounds. About 8,600 (12%) showed an effect of 50% or more. The list comes from a sample in which strong results are over-represented; it also holds close analogues and randomly drawn compounds.
Recorded INHIBITION values for a group of compounds are listed next.
Provide only the numeric value, understood in %.

// worked examples, INHIBITION included
COMPOUND: O=C(COCc1nc(-c2ccncc2)no1)N1CCOCC1
INHIBITION (%): 1.06
//
COMPOUND: Cc1nc[nH]c1CNC1CC(=O)N(CCc2cccc(Cl)c2)C1 (stereo not given)
INHIBITION (%): 53.9
//
COMPOUND: O=C(NCCCN1CCOCC1)c1cc(-c2ccco2)[nH]n1
INHIBITION (%): -26.5
//
COMPOUND: CC(=O)N1CC(=O)N(c2cnn(C)c2)CC12CCN(CC1CC1)C2 (stereo not given)
INHIBITION (%): 30.1
//
COMPOUND: CC(C)C(=O)NCCc1nc(-c2ccncc2)n[nH]1
INHIBITION (%): 28.2

Returns the measured INHIBITION for the input compound. Input: `COc1ccc(C)cc1CN1CCN(Cc2nccn2C)CC1`
-190

Report INHIBITION for `Fc1cc(F)cc(CN2CCC(c3cc4ncccc4cn3)CC2)c1` please.
32.3

Please give the measured INHIBITION for this compound: `O=C(Cc1nc(-c2ccncc2)n[nH]1)N1CCOCC1`
78.8

So what's the measured INHIBITION for this one? `CC(C)Oc1cccc2c1c(NC(=O)CN(C)C)nn2CC(F)(F)F`
7.77

Dear colleague, I am looking for the recorded INHIBITION of the following compound: CC(C)c1nc2n(n1)CC(NCc1nnc(C3CC3)o1)CC2 (stereo not given)
-2.53
